Consider the following substances; for each one, report its hK2 Hydrolysis Rate.
test system: hK2 (Homo sapiens, UniProt P20151)
Construct: made in house
Sequence (P20151 25-261): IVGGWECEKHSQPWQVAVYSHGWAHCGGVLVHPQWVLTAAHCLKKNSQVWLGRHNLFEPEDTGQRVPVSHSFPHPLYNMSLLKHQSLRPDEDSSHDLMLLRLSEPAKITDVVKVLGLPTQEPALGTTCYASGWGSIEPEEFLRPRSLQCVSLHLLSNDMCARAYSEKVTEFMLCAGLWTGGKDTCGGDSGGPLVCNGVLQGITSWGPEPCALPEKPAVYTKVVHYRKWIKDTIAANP
method description: Hydrolysis of hK2 substrates by hK2
Format: biochemical
condition: Table 4; hK2 1 μg/ml, 50 mM Tris, 0.1 M NaCl, pH 7.8
Field: numeric (FU/hr/m). Do not append units.

State its hK2 Hydrolysis Rate for this substance: SEQ ID NO: 75: hK2 substrate peptide, single letter sequence P7-P′1 (GSYPSSRL; listed as Homo sapiens)
1456.18

State its hK2 Hydrolysis Rate for this substance: SEQ ID NO: 78: hK2 substrate peptide, single letter sequence P7-P′1 (GSYEERRL; listed as Homo sapiens)
324.75

State its hK2 Hydrolysis Rate for this substance: SEQ ID NO: 81: hK2 substrate peptide, single letter sequence P7-P′1 (GSKGHFHL; listed as Homo sapiens)
171.47

Each recorded value in this set is attributed to patent US8450280B2.
